testedOn: T1, His-tagged cynomolgus TIGIT (cynomolgus, UniProt A0A7N9I9V4 89-209)
T1 construct: SPR analyte; also called cynomolgus TIGIT protein; not shown: His tag
testName: SPR (Biacore T200), antibody captured, His-tagged TIGIT analyte
// NB: equality with 3 nM counts as not met; only Kd strictly below is met

// known answers, use as guide
TIGIT-94 chimeric antibody (antibody, human IgG1, kappa, V domains shown, Full-length chimeric IgG1 kappa) VH: EVKLVESGGGLVKPGGSLKLSCAASGFTFSTYTMSWVRQTPEKRLEWVATISSGGTYTHYPDSVKGRFTISRDNAKNTLYLQMSSLKSEDTAMYYCTRWFLSLYAMDYWGQGTSVTVSS VL: DIVMTQSTSSLSASLGDRVTISCRASQDINNFLNWYQQKPAGTVDLLIYYTSRLHSGVPSRFSGSGSGTDYSLTISNLDQEDIATYFCQQGNTFPYTFGGGTRLEIKR    not met
TIGIT-63 chimeric antibody (antibody, human IgG1, kappa, V domains shown, Full-length chimeric IgG1 kappa) VH: DVQLVESGGGLVQPGGSLSLSCAASGFTFTDYYMNWVRQPPGKALEWLGFIRNKANGYTTEYSASVKGRFTISRDNSQSILYLQMNALRAEDSATYYCARSTAWYFDVWGTGTTLTVSS VL: DIQMTQSPASLSASVGGTVTITCRASEHIYSYLAWYQQKQGKSPQLLVYNAKTLAEGVPSRFSGSGSGTQFSLKINSLQPKDFGSYYCQHHYGNPLTFGAGTKLELKR    not met
Hu1217-2-2 (anti-TIGIT positive control antibody) (antibody, V domains shown) VH: EVQLVESGGGLVQPGGSLRLSCAASGFTFSDYYMYWVRQAPGKGLEWVAYITKGGGSTYYPDSVKGRFTISRDNAKNTLYLQMNSLRAEDTAVYYCARQTNYDFTMDYWGQGTLVTVSS VL: EIVMTQSPATLSVSPGERATLSCKASQDVGTSVAWYQQKPGQAPRLLIYWASARHTGIPARFSGSGSGTEFTLTISSLQSEDFAVYYCQQYSSYPLTFGGGTKVEIK    not met
TIGIT-19 chimeric antibody (antibody, human IgG1, kappa, V domains shown, also called 19VH + 19VL) VH: QVQLQQPGPELVKPGTSVMLSCKASGYAFSRYSMYWVKQSHGKSLEWIAFIDPYNGGSTYNQRFRGKATLTVDKSSSTAYMHLNTLTSDDSAVYYCARGGDYGWYLGVWGAGTTVTVSS VL: DIQMTQSPASLSASVGETVTITCRPSENIYTYLSWYQQKRGKSPQLLVYNAKTLPENVPSRFSGSGSGTQFSLKIDSLQPEDFGNYYCQHHYGNPLTFGAGTKLELKR    met

# ---- query binder ----
Req: Strictly below 3 nM in Kd? TIGIT-3 chimeric antibody (antibody, human IgG1, kappa, V domains shown, also called 3VH + 3VL) VH: EVQLVESGGGLVQPGGSLKLSCAASGFTFSSYGMSWVRQTPDKRLELVATIKSDGGSTNLPDSVKGRFTISRDNAKNTLHLQMSSLKSEDTAMYYCVRGYFDYWGQGTSVTVSS VL: DIVMTQSHKFMSTSVGDRVSITCKASQDVKTAVAWYQQKPGQSPKLLIYWSSTRHTGVPDRFTGSRSLTDHTLTISSVQAEDLALYYCQQYYSTPYTFGGGTKLELKR
Resp: met
